Test system: sst4 receptor (Homo sapiens)
Construct: expressed in transfected cells
Sequence (P31391 whole entry): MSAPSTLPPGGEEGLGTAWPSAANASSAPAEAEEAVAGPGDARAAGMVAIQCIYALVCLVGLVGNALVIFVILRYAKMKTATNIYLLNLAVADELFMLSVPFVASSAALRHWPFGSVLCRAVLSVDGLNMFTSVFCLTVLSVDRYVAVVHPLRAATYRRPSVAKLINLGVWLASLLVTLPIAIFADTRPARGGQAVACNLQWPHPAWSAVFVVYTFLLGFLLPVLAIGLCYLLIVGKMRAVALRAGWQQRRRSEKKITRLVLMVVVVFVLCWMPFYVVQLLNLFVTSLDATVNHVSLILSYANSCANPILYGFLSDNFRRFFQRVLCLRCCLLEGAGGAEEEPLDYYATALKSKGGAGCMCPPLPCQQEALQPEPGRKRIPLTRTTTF
Assay remarks: Somatostatin sst4 receptor-coupled G-protein activation assay ([35S]GTPγS binding)
Assay type: biochemical
Assay conditions: 100 nM concentration; membrane fractions of CHO cells stably expressing the sst4 receptor; percentage over specific binding in absence of agonists
Examples of molecules with documented [35S]GTPγS binding (G-protein activation) follow.
Readout kind: [35S]GTPγS binding (G-protein activation) (%)

Smiles input | Value reported
COc1ccc(CCNc2ncnc3c2c(C)c(C)n3CCCN(C)C)cc1 | 207.67
Cc1c(C)n(Cc2ccccc2)c2ncnc(NCCc3cccc(O)c3)c12 | 194.5
CC(=O)Nc1ccc(CCNc2ncnc3c2c(C)c(C)n3Cc2ccccc2)cc1 | 210.67
COc1cccc(CCNc2ncnc3c2c(C)c(C)n3Cc2ccccc2)c1 | 202.67
COc1ccc(CCNc2ncnc3c2c(C)c(C)n3Cc2ccccc2)cc1 | 245.67
